Recorded MIC for the following compounds
System: Bacillus subtilis
assayOverview: Antimicrobial activity against Bacillus subtilis after 24 hr by serial dilution method
Format: functional
reportedEndpoint: MIC

CCC1C(=O)CC(c2ccco2)NC1c1ccco1 (configuration not stated)    25 µg/mL
CC1C(=O)CC(c2ccco2)NC1c1ccco1 (configuration not stated)    50 µg/mL
CN[C@@H]1[C@H](O[C@H]2[C@H](O[C@H]3[C@H](O)[C@@H](O)[C@H](N=C(N)N)[C@@H](O)[C@@H]3N=C(N)N)O[C@@H](C)[C@]2(O)C=O)O[C@@H](CO)[C@H](O)[C@H]1O    12.5 µg/mL
CC1C(=O)C(C)C(c2ccco2)NC1c1ccco1 (configuration not stated)    12.5 µg/mL
CC1/C(=N\O)CC(c2ccco2)NC1c1ccco1 (configuration not stated)    25 µg/mL
CCC1/C(=N\O)CC(c2ccco2)NC1c1ccco1 (configuration not stated)    25 µg/mL
CC1C(=NO)C(C)C(c2ccco2)NC1c1ccco1 (configuration not stated)    25 µg/mL
